- Target System: Kappa-type opioid receptor (Cavia porcellus)
- Sequence (P41144 whole entry): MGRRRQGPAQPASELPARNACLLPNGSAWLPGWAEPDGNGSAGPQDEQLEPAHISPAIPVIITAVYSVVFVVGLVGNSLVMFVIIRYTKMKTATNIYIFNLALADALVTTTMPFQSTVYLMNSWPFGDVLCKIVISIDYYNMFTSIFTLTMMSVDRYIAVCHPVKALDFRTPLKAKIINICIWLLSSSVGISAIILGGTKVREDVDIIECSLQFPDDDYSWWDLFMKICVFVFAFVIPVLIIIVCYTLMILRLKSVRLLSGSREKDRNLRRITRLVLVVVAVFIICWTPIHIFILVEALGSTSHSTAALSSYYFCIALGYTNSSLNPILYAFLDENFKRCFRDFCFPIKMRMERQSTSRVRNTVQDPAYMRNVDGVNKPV
- Protocol Notes: Displacement of [3H]U-69,593 from kappa opioid receptor in guinea pig cerebellum
pKi: −log10 of the molar value.
Entries annotated with measured pKi
Measured Endpoint: pKi

INSERT INTO measurements (molecular_string, measured_endpoint, comparison_operator, recorded_number) VALUES
  ('COc1cccc2cc3c(nc12)C[C@]12CCN(C)[C@H](Cc4ccc(O)cc41)[C@]2(O)C3', 'pKi', '=', 5.76),
  ('CN(C)c1ccc2cc3c(nc2c1)C[C@]12CCN(C)[C@H](Cc4ccc(O)cc41)[C@]2(O)C3', 'pKi', '=', 6.41),
  ('CN1CC[C@]23Cc4nc5c(F)cccc5cc4C[C@@]2(O)[C@H]1Cc1ccc(O)cc13', 'pKi', '=', 6.81),
  ('CN1CC[C@]23Cc4nc5cccc(C(F)(F)F)c5cc4C[C@@]2(O)[C@H]1Cc1ccc(O)cc13', 'pKi', '=', 7.01),
  ('CN1CC[C@]23Cc4nc5cccc(F)c5cc4C[C@@]2(O)[C@H]1Cc1ccc(O)cc13', 'pKi', '=', 7.22),
  ('CN1CC[C@]23Cc4nc5ccc(O)cc5cc4C[C@@]2(O)[C@H]1Cc1ccc(O)cc13', 'pKi', '=', 7.64),
  ('CN(C)c1cccc2nc3c(cc12)C[C@@]1(O)[C@H]2Cc4ccc(O)cc4[C@@]1(CCN2C)C3', 'pKi', '=', 6.56),
  ('CN1CC[C@]23Cc4nc5ccc(C(F)(F)F)cc5cc4C[C@@]2(O)[C@H]1Cc1ccc(O)cc13', 'pKi', '=', 7.01),
  ('CN1CC[C@]23Cc4nc5cc(F)ccc5cc4C[C@@]2(O)[C@H]1Cc1ccc(O)cc13', 'pKi', '=', 6.39),
  ('CN1CC[C@]23Cc4nc5c(Cl)cccc5cc4C[C@@]2(O)[C@H]1Cc1ccc(O)cc13', 'pKi', '=', 6.90),
  ('CN1CC[C@]23Cc4nc5ccc([N+](=O)[O-])cc5cc4C[C@@]2(O)[C@H]1Cc1ccc(O)cc13', 'pKi', '=', 7.18),
  ('CN1CC[C@]23Cc4nc5cccc(O)c5cc4C[C@@]2(O)[C@H]1Cc1ccc(O)cc13', 'pKi', '=', 7.81),
  ('CN1CC[C@]23Cc4nc5cc(C(F)(F)F)ccc5cc4C[C@@]2(O)[C@H]1Cc1ccc(O)cc13', 'pKi', '<', 6.00),
  ('Cc1ccc2nc3c(cc2c1)C[C@@]1(O)[C@H]2Cc4ccc(O)cc4[C@@]1(CCN2C)C3', 'pKi', '=', 7.31),
  ('Cc1cccc2nc3c(cc12)C[C@@]1(O)[C@H]2Cc4ccc(O)cc4[C@@]1(CCN2C)C3', 'pKi', '=', 7.14),
  ('CN1CC[C@]23Cc4nc5c(C(F)(F)F)cccc5cc4C[C@@]2(O)[C@H]1Cc1ccc(O)cc13', 'pKi', '=', 6.47),
  ('CN1CC[C@]23Cc4nc5ccc(Cl)cc5cc4C[C@@]2(O)[C@H]1Cc1ccc(O)cc13', 'pKi', '=', 6.88),
  ('CN1CC[C@]23Cc4nc5c(O)cccc5cc4C[C@@]2(O)[C@H]1Cc1ccc(O)cc13', 'pKi', '=', 7.17),
  ('Cc1cccc2cc3c(nc12)C[C@]12CCN(C)[C@H](Cc4ccc(O)cc41)[C@]2(O)C3', 'pKi', '=', 6.77),
  ('COc1ccc2nc3c(cc2c1)C[C@@]1(O)[C@H]2Cc4ccc(O)cc4[C@@]1(CCN2C)C3', 'pKi', '=', 7.11),
  ('COc1ccc2cc3c(nc2c1)C[C@]12CCN(C)[C@H](Cc4ccc(O)cc41)[C@]2(O)C3', 'pKi', '=', 7.11),
  ('CN1CC[C@]23Cc4nc5ccc(F)cc5cc4C[C@@]2(O)[C@H]1Cc1ccc(O)cc13', 'pKi', '=', 6.71),
  ('CN1CC[C@]23Cc4nc5cc(Cl)ccc5cc4C[C@@]2(O)[C@H]1Cc1ccc(O)cc13', 'pKi', '=', 6.40),
  ('CN1CC[C@]23Cc4nc5c([N+](=O)[O-])cccc5cc4C[C@@]2(O)[C@H]1Cc1ccc(O)cc13', 'pKi', '=', 6.78),
  ('CN(C)c1ccc2nc3c(cc2c1)C[C@@]1(O)[C@H]2Cc4ccc(O)cc4[C@@]1(CCN2C)C3', 'pKi', '=', 6.46),
  ('CN(C)c1cccc2cc3c(nc12)C[C@]12CCN(C)[C@H](Cc4ccc(O)cc41)[C@]2(O)C3', 'pKi', '=', 6.46),
  ('COc1cccc2nc3c(cc12)C[C@@]1(O)[C@H]2Cc4ccc(O)cc4[C@@]1(CCN2C)C3', 'pKi', '=', 7.09),
  ('Oc1ccc2c3c1O[C@H]1c4[nH]c5ccccc5c4C[C@@]4(O)[C@@H](C2)N(CC2CC2)CC[C@]314', 'pKi', '=', 8.04),
  ('CN1CC[C@]23Cc4nc5cc([N+](=O)[O-])ccc5cc4C[C@@]2(O)[C@H]1Cc1ccc(O)cc13', 'pKi', '=', 6.55),
  ('CN1CC[C@]23Cc4nc5cccc([N+](=O)[O-])c5cc4C[C@@]2(O)[C@H]1Cc1ccc(O)cc13', 'pKi', '=', 7.43),
  ('Cc1ccc2cc3c(nc2c1)C[C@]12CCN(C)[C@H](Cc4ccc(O)cc41)[C@]2(O)C3', 'pKi', '=', 6.73),
  ('CN1CC[C@]23Cc4nc5cccc(Cl)c5cc4C[C@@]2(O)[C@H]1Cc1ccc(O)cc13', 'pKi', '=', 7.32),
  ('CN1CC[C@]23Cc4nc5cc(O)ccc5cc4C[C@@]2(O)[C@H]1Cc1ccc(O)cc13', 'pKi', '=', 7.66);
